assay.target: UniProt Q8IAM0
experiment.description: IC50 for competition of protein binding to Kinobeads;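 note: native unpurified kinases from lysate captured on beads bearing immobilized kinase inhibitors, with bead-bound kinases quantified by mass spectrometry across compound doses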
assay.setup: assay detail: Kinobeads competition in P. falciparum blood-stage lysate
pIC50: −log10 of the molar value.
endpoint.label: pIC50

QUERY: Output measured pIC50 for this item: O=c1[nH]c2ccc(Cl)cc2c(NC2CN3CCC2CC3)c1-c1nc2ccccc2[nH]1 (stereo unspecified) [CHIR-124]
RESULT: < 4.70

* * *

assay.target: UniProt O77385
experiment.description: IC50 for competition of protein binding to Kinobeads
assay.setup: assay detail: Kinobeads competition in P. falciparum blood-stage lysate
endpoint.label: IC50

QUERY: Output measured IC50 for this item: O=c1[nH]c2ccc(Cl)cc2c(NC2CN3CCC2CC3)c1-c1nc2ccccc2[nH]1 (stereo unspecified)
RESULT: > 20 µM
